# assay-text: The drug is tested on Z-002 corresponding to rabbit gut metagenome with ENA study accession number: PRJEB37062 and ENA sample accession number: ERS12561802 for biotransformation under anaerobic condition. The drug concentrations were measured over 9 timepoints collected between 0 and 24 hours of incubation by liquid-chromatography-coupled mass spectrometry (LC–MS); also: call rule not given here
# test-context: 2 µM
parameter-measured: Bacterial Biotransformation

Below, 7 compounds whose answers are already recorded.
INSERT INTO results (compound, observed_result) VALUES
  ('Clc1ccc(Cn2c(CN3CCCC3)nc3ccccc32)cc1', 'Compound metabolized'),
  ('CCOC(=O)[C@H](CCc1ccccc1)N[C@@H](C)C(=O)N1[C@H](C(=O)O)C[C@H]2CCCC[C@@H]21', 'Compound metabolized'),
  ('Cc1nc2n(c(=O)c1CCN1CCC(c3noc4cc(F)ccc34)CC1)CCCC2', 'Compound metabolized'),
  ('CC[C@@H](CO)NC(=O)[C@@H]1C=C2c3cccc4c3c(cn4C)C[C@H]2N(C)C1.O=C(O)/C=C\C(=O)O [METHYSERGIDE MALEATE]', 'Compound NOT metabolized'),
  ('CCN(CC)CCOCCOC(=O)C1(c2ccccc2)CCCC1.O=C(O)CC(O)(CC(=O)O)C(=O)O [CARBETAPENTANE CITRATE]', 'Compound metabolized'),
  ('Br.CN(C)CCCC1(c2ccc(F)cc2)OCc2cc(C#N)ccc21 (stereo not drawn) [CITALOPRAM HYDROBROMIDE]', 'Compound metabolized'),
  ('O=C(O)COCCN1CCN(C(c2ccccc2)c2ccc(Cl)cc2)CC1 (stereo not drawn)', 'Compound metabolized');

Here's the next entry for you.
Given the compound CN(C)CCc1c[nH]c2ccc(Cn3cncn3)cc12.O=C(O)c1ccccc1 [RIZATRIPTAN BENZOATE] , write its reported Bacterial Biotransformation. Compound NOT metabolized

###

# test-context: human gut metagenome, 24 h, 2 µM
parameter-measured: Bacterial Biotransformation

INSERT INTO assay_data (compound, parameter_measured, observed_result) VALUES
  ('O=C(NCc1ccccc1)OCCO [BURAMATE]', 'Bacterial Biotransformation', 'Compound NOT metabolized'),
  ('C#C[C@]1(O)CC[C@H]2[C@@H]3CCC4=CC(=O)CC[C@@H]4[C@H]3CC[C@@]21CC', 'Bacterial Biotransformation', 'Compound metabolized'),
  ('OCCOCCN1CCN(C2=Nc3ccccc3Sc3ccccc32)CC1', 'Bacterial Biotransformation', 'Compound metabolized'),
  ('CN(C)CC(c1ccc(O)cc1)C1(O)CCCCC1.O=C(O)CCC(=O)O (stereo not drawn) [DESVENLAFAXINE SUCCINATE]', 'Bacterial Biotransformation', 'Compound NOT metabolized'),
  ('CN1C(=O)CCS(=O)(=O)C1c1ccc(Cl)cc1 (stereo not drawn)', 'Bacterial Biotransformation', 'Compound metabolized');

Given the compound OC(CCN1CCCCC1)(c1ccccc1)C1CC2C=CC1C2 (stereo not drawn) , write its reported Bacterial Biotransformation. Compound NOT metabolized

Given the compound NC(=O)N1c2ccccc2CC(=O)c2ccccc21 [OXCARBAZEPINE] , write its reported Bacterial Biotransformation. Compound NOT metabolized

Given the compound CNC(=C[N+](=O)[O-])NCCSCc1csc(CN(C)C)n1 , write its reported Bacterial Biotransformation. Compound metabolized

###

# assay-text: The drug is tested on Z-009 corresponding to pig gut metagenome with ENA study accession number: PRJEB37062 and ENA sample accession number: ERS12561809 for biotransformation under anaerobic condition. The drug concentrations were measured over 9 timepoints collected between 0 and 24 hours of incubation by liquid-chromatography-coupled mass spectrometry (LC–MS)
# test-context: 2 µM
parameter-measured: Bacterial Biotransformation

INSERT INTO measurements (compound, observed_result) VALUES
  ('CC(C)(Oc1ccc(CCNC(=O)c2ccc(Cl)cc2)cc1)C(=O)O [BEZAFIBRATE]', 'Compound metabolized'),
  ('CCCC1O[C@@H]2C[C@H]3[C@@H]4CCC5=CC(=O)C=C[C@]5(C)[C@H]4[C@@H](O)C[C@]3(C)[C@]2(C(=O)CO)O1 (some centres undefined) [BUDESONIDE]', 'Compound metabolized'),
  ('OCCN1CCN(CCCN2c3ccccc3Sc3ccc(C(F)(F)F)cc32)CC1', 'Compound metabolized');

###

# test-context: human gut metagenome, 24 h, 2 µM
parameter-measured: Bacterial Biotransformation

INSERT INTO results (molecule, observed_result) VALUES
  ('COc1ccccc1OCC(O)CN1CCN(CC(=O)Nc2c(C)cccc2C)CC1 (centres undefined)', 'Compound NOT metabolized'),
  ('CC(C)c1c(C(=O)Nc2ccccc2)c(-c2ccccc2)c(-c2ccc(F)cc2)n1CC[C@@H](O)C[C@@H](O)CC(=O)O', 'Compound metabolized'),
  ('N#Cc1ccc(C(c2ccc(C#N)cc2)n2cncn2)cc1', 'Compound NOT metabolized'),
  ('CCN1CCCC1CNC(=O)c1cc(S(N)(=O)=O)ccc1OC (centres undefined) [SULPIRIDE]', 'Compound metabolized');

###

# test-context: human gut metagenome, 24 h, 2 µM
parameter-measured: Bacterial Biotransformation

INSERT INTO assay_data (molecule, observed_result) VALUES
  ('CN(C)CCc1c[nH]c2ccc(Cn3cncn3)cc12.O=C(O)c1ccccc1 [RIZATRIPTAN BENZOATE]', 'Compound NOT metabolized'),
  ('CN1CCc2c(c3ccccc3n2Cc2ccccc2)C1.CN1CCc2c(c3ccccc3n2Cc2ccccc2)C1.O=S(=O)(O)c1cccc2c(S(=O)(=O)O)cccc12', 'Compound NOT metabolized'),
  ('CCc1nc(N)nc(N)c1-c1ccc(Cl)cc1', 'Compound NOT metabolized');

###

# test-context: human gut metagenome, 24 h, 2 µM
parameter-measured: Bacterial Biotransformation

Below, 5 compounds whose answers are already recorded.
INSERT INTO results (compound, observed_result) VALUES
  ('O=C(O)CCc1nc(-c2ccccc2)c(-c2ccccc2)o1', 'Compound metabolized'),
  ('COc1ccccc1N1CCN(CC(O)COc2cccc3ccccc23)CC1 (stereo unspecified)', 'Compound NOT metabolized'),
  ('CCOc1ccc(NC(C)=O)cc1', 'Compound NOT metabolized'),
  ('COc1ccc2c(c1OC)C(=O)O[C@@H]2[C@H]1c2c(cc3c(c2OC)OCO3)CCN1C', 'Compound NOT metabolized'),
  ('CC[C@H](C)C(=O)O[C@H]1C[C@@H](C)C=C2C=C[C@H](C)[C@H](CC[C@@H]3C[C@@H](O)CC(=O)O3)[C@H]21', 'Compound NOT metabolized');

Given the compound CCCc1nc(C(C)(C)O)c(C(=O)OCc2oc(=O)oc2C)n1Cc1ccc(-c2ccccc2-c2nnn[nH]2)cc1 , write its reported Bacterial Biotransformation. Compound NOT metabolized

Given the compound COc1cc2nc(N3CCN(C(=O)c4ccco4)CC3)nc(N)c2cc1OC , write its reported Bacterial Biotransformation. Compound metabolized

###

# assay-text: The drug is tested on WLS-220 corresponding to human gut metagenome with ENA study accession number: PRJEB37062 and ENA sample accession number: ERS12561769 for biotransformation under anaerobic condition. The drug concentrations were measured over 9 timepoints collected between 0 and 24 hours of incubation by liquid-chromatography-coupled mass spectrometry (LC–MS)
# test-context: 2 µM
parameter-measured: Bacterial Biotransformation

Below, 10 compounds whose answers are already recorded.
INSERT INTO results (compound, observed_result) VALUES
  ('CNS(=O)(=O)Cc1ccc2[nH]cc(CCN(C)C)c2c1.O=C(O)CCC(=O)O [SUMATRIPTAN SUCCINATE]', 'Compound metabolized'),
  ('O=C(O)COCCN1CCN(C(c2ccccc2)c2ccc(Cl)cc2)CC1 (configuration not stated) [CETIRIZINE]', 'Compound metabolized'),
  ('CO[C@]12C[C@@H](COC(=O)c3cncc(Br)c3)CN(C)[C@@H]1Cc1cn(C)c3cccc2c13 [NICERGOLINE]', 'Compound NOT metabolized'),
  ('Cc1nc2n(c(=O)c1CCN1CCC(c3noc4cc(F)ccc34)CC1)CCCC2O (configuration not stated) [PALIPERIDONE]', 'Compound metabolized'),
  ('CN1CC(=O)N2[C@H](c3ccc4c(c3)OCO4)c3[nH]c4ccccc4c3C[C@@H]2C1=O', 'Compound metabolized'),
  ('Cc1cc2c(cc1S(N)(=O)=O)S(=O)(=O)CCC2', 'Compound NOT metabolized'),
  ('CCN(CC)CCNC(C(=O)OCCC(C)C)c1ccccc1.Cl.Cl (configuration not stated)', 'Compound NOT metabolized'),
  ('CCCc1nc2c(C)cc(-c3nc4ccccc4n3C)cc2n1Cc1ccc(-c2ccccc2C(=O)O)cc1', 'Compound metabolized'),
  ('COCCc1ccc(OCC(O)CNC(C)C)cc1.COCCc1ccc(OCC(O)CNC(C)C)cc1.O=C(O)C(O)C(O)C(=O)O (configuration not stated) [METOPROLOL TARTRATE]', 'Compound NOT metabolized'),
  ('Cc1ccc(/C(=C\CN2CCCC2)c2ccccn2)cc1 [TRIPROLIDINE]', 'Compound NOT metabolized');

Given the compound OCCN1CCN(CCCN2c3ccccc3Sc3ccc(C(F)(F)F)cc32)CC1 [FLUPHENAZINE] , write its reported Bacterial Biotransformation. Compound metabolized

Given the compound CN1C(=O)CC(C)(c2ccccc2)C1=O (configuration not stated) [METHSUXIMIDE] , write its reported Bacterial Biotransformation. Compound NOT metabolized

Given the compound COc1ccccc1OCC(O)CN1CCN(CC(=O)Nc2c(C)cccc2C)CC1 (configuration not stated) [RANOLAZINE] , write its reported Bacterial Biotransformation. Compound NOT metabolized

Given the compound CCCc1nn(C)c2c(=O)[nH]c(-c3cc(S(=O)(=O)N4CCN(C)CC4)ccc3OCC)nc12.O=C(O)CC(O)(CC(=O)O)C(=O)O [SILDENAFIL CITRATE] , write its reported Bacterial Biotransformation. Compound NOT metabolized

Given the compound NC12CC3CC(CC(C3)C1)C2 [AMANTADINE] , write its reported Bacterial Biotransformation. Compound NOT metabolized

Given the compound Cc1ccc(-c2nc3ccc(C)cn3c2CC(=O)N(C)C)cc1 [ZOLPIDEM] , write its reported Bacterial Biotransformation. Compound metabolized

Given the compound C[C@@H]1C[C@H]2[C@@H]3CCC4=CC(=O)C=C[C@]4(C)[C@@]3(F)[C@@H](O)C[C@]2(C)[C@@]1(O)C(=O)CO [DEXAMETHASONE] , write its reported Bacterial Biotransformation. Compound NOT metabolized
